Listed below: EC50 values for each entry.
Target: CXCR3 (Homo sapiens, UniProt P49682)
Construct: host or cells: CHO-K1 (cAMP Hunter CHOK1 CXCR3 Gi cell line)
Sequence (P49682 whole entry): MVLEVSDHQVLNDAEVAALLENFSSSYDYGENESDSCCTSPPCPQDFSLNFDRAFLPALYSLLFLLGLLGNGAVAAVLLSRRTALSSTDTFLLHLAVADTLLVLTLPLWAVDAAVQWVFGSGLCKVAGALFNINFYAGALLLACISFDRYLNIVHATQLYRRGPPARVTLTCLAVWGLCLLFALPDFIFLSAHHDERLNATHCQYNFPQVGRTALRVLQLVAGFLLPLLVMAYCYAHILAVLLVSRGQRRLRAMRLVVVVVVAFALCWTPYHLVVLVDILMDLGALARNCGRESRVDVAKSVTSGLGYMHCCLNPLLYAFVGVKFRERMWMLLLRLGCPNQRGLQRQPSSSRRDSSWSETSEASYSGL
Assay: CXCR3 cAMP agonist assay (cAMP Hunter CHOK1 CXCR3 Gi cell line, forskolin-stimulated, HitHunter cAMP detection)
Assay type: cell-based
Conditions: cAMP Hunter CHOK1 CXCR3 Gi cells, 20 μM forskolin, 30 minutes; read-out: Activity (CXCR3 cAMP agonist assay compound EC50)

Example cases with answers are listed next.
compound	tgt	EC50
Cc1cc(NC(=O)[C@H](CCN)NC(=O)[C@@H]2Cc3ccccc3CN2C(=O)CCC(=O)N(C)CC(C)(C)C)ccc1Cl	CXCR3 (Homo sapiens, UniProt P49682)	< 50 nM
NCC[C@H](NC(=O)[C@@H]1Cc2ccc(O)cc2CN1C(=O)CCC(=O)c1ccccc1)C(=O)Nc1ccc(Cl)c(Cl)c1F	CXCR3 (Homo sapiens, UniProt P49682)	< 50 nM
Cc1cc(NC(=O)[C@H](CCN)NC(=O)[C@@H]2Cc3ccccc3CN2C(=O)CCC(=O)N2CCCC3(CCC3)C2)cc(C)c1Cl	CXCR3 (Homo sapiens, UniProt P49682)	< 50 nM
NCCCC[C@H](NC(=O)[C@@H]1Cc2ccccc2CN1C(=O)CCC(=O)c1ccccc1)C(=O)Nc1ccc(Cl)c(C(F)(F)F)c1	CXCR3 (Homo sapiens, UniProt P49682)	< 50 nM

Note to self: EC50 recorded for Cc1cc(NC(=O)[C@H](CCN2CCC(O)CC2)NC(=O)[C@@H]2Cc3ccccc3CN2C(=O)CCC(=O)c2ccccc2)c(F)cc1Cl (racemic) was 50 to 250 nM

For NCCCC[C@H](NC(=O)[C@@H]1Cc2ccccc2CN1C(=O)CCC(=O)c1ccccc1)C(=O)Nc1ccc(-c2ccccc2)cc1 the compound record lists EC50 as > 500 nM
